biological target: human PI3Kα (Homo sapiens, UniProt P42336); construct: made in house; assay: Biochemical PI3Kalpha (KinaseGlo luminescent kinase assay); conditions: biochemical, 1 μM ATP, mean of n measurements; read-out: PI3Ka/ IC50
Sequence (P42336 with tags, fused parts or gaps limits assumed): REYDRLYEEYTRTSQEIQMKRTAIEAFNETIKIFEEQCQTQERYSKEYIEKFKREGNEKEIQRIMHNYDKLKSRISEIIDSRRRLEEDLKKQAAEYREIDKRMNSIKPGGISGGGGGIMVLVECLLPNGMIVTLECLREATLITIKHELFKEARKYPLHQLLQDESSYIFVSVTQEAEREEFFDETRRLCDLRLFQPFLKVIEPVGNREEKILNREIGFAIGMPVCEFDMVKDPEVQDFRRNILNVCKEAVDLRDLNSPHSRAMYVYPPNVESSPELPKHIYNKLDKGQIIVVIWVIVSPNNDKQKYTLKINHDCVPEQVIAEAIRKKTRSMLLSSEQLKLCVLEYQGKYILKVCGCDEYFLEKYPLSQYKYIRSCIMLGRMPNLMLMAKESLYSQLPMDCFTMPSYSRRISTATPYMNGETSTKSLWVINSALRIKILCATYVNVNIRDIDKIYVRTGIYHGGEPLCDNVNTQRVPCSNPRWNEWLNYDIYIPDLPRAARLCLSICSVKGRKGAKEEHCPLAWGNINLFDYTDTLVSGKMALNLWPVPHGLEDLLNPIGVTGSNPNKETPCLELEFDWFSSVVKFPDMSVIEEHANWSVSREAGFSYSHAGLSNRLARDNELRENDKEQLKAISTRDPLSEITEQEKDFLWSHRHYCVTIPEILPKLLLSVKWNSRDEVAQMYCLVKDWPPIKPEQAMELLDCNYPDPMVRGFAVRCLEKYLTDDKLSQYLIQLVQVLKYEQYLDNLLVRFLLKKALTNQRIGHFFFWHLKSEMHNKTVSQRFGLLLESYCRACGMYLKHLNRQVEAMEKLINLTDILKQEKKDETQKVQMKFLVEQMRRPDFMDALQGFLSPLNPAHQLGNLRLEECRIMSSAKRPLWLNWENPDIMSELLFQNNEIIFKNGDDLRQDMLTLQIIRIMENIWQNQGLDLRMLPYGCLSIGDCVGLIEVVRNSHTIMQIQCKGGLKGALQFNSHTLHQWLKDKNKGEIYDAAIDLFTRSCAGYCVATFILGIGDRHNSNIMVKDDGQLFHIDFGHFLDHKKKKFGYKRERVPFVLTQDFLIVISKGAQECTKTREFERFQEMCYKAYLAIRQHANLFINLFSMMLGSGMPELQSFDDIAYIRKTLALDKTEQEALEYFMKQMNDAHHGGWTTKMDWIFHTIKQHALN

[
  {
    "COMPOUND": "C[C@H](O)CC1OC(=O)N(c2cc(-c3cnc(N)nc3C(F)(F)F)nc(N3CCOCC3)n2)[C@H]1C (single isomer, unassigned) [Example 25]",
    "IC50 (nM)": 5
  },
  {
    "COMPOUND": "C[C@H]1C(CC(C)(C)O)OC(=O)N1c1cc(-c2cnc(N)nc2C(F)(F)F)nc(N2CCOCC2)n1 (mixture of isomers) [Example 26]",
    "IC50 (nM)": 5
  },
  {
    "COMPOUND": "Nc1ncc(-c2cc(N3C(=O)OC4C(O)CCC43)nc(N3CCOCC3)n2)c(C(F)(F)F)n1 (single isomer, unassigned) [Example 22B]",
    "IC50 (nM)": 26
  },
  {
    "COMPOUND": "Nc1ncc(-c2cc(N3C(=O)OC4C(O)CCC43)nc(N3CCOCC3)n2)c(C(F)(F)F)n1 (single isomer, unassigned) [Example 22A]",
    "IC50 (nM)": 7
  },
  {
    "COMPOUND": "Nc1ncc(-c2cc(N3C(=O)O[C@@H]4[C@@H](O)CC[C@@H]43)nc(N3CCOCC3)n2)c(C(F)(F)F)n1 (racemic) [Example 22]",
    "IC50 (nM)": 6
  },
  {
    "COMPOUND": "C[C@@H](O)C[C@H]1OC(=O)N(c2cc(-c3cnc(N)nc3C(F)(F)F)nc(N3CCOCC3)n2)[C@H]1C (single isomer, unassigned) [Example 24]",
    "IC50 (nM)": 5
  }
]

---

Reported pIC50 by item:
Molecular target: human PI3Kδ (Homo sapiens, UniProt O00329)
Sequence (O00329 2-1044 limits assumed): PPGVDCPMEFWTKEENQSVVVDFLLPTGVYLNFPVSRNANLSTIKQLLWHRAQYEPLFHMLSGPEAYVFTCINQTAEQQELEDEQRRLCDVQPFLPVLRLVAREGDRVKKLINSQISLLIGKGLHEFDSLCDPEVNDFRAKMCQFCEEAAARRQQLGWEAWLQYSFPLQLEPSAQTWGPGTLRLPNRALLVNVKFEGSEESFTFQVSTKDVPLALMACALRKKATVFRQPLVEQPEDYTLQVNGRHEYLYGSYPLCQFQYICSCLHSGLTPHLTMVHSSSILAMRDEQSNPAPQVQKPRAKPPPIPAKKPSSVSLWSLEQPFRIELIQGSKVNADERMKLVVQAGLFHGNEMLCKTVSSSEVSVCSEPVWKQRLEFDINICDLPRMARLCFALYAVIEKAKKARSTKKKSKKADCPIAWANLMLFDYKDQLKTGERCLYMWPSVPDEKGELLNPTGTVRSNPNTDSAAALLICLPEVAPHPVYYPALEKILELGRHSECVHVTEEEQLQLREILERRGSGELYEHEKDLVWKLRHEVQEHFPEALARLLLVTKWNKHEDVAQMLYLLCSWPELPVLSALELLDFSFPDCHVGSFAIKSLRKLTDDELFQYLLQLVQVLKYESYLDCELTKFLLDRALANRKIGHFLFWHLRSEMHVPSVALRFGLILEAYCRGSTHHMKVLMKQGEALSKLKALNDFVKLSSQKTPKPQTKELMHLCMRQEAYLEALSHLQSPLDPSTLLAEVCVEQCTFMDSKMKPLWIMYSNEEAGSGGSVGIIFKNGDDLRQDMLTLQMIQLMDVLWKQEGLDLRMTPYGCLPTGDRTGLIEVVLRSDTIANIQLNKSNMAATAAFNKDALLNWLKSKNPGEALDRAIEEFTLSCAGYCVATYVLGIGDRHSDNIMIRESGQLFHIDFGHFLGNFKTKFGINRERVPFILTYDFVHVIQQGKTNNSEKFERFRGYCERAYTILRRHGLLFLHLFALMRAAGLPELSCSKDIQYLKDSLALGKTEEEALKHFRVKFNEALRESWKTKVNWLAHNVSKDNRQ
pIC50: −log10 of the molar value.

[
  {
    "STRUCTURE_SMILES_STRING": "[2H]C1([2H])OC([2H])([2H])C([2H])([2H])N(c2nc(-c3cnc(N)nc3C(F)(F)F)cc(N3C(=O)OC[C@@H]3C)n2)C1([2H])[2H]",
    "pIC50": 8.10
  },
  {
    "STRUCTURE_SMILES_STRING": "Nc1ncc(-c2cc(N3C(=O)OC[C@@H]3CCO)nc(N3CCOCC3)n2)c(C(F)(F)F)n1",
    "pIC50": 7.49
  },
  {
    "STRUCTURE_SMILES_STRING": "Nc1ncc(-c2cc(N3C[C@@H](CO)OC3=O)nc(N3CCOCC3)n2)c(C(F)(F)F)n1",
    "pIC50": 7.77
  },
  {
    "STRUCTURE_SMILES_STRING": "C[C@@H]1OC(=O)N(c2cc(-c3cnc(N)nc3C(F)(F)F)nc(N3CCOCC3)n2)[C@H]1CO",
    "pIC50": 7.96
  }
]

---

biological target: human PI3Kbeta p110 catalytic subunit (Rat-1 pBABEpuro Myr-HA-hp110 beta) (Homo sapiens); construct: Myr (myristoylation signal) (N); HA (N); expressed in transfected cells; host or cells: Rat-1; experiment: Cellular assay PI3Kbeta (p-Akt(S473) SureFire, Rat-1_PI3beta cells); format: cell-based; conditions: p-Akt(S473), 1 h compound treatment; read-out: Rat1-PI3Kb/ IC50
Sequence (P42338 whole entry): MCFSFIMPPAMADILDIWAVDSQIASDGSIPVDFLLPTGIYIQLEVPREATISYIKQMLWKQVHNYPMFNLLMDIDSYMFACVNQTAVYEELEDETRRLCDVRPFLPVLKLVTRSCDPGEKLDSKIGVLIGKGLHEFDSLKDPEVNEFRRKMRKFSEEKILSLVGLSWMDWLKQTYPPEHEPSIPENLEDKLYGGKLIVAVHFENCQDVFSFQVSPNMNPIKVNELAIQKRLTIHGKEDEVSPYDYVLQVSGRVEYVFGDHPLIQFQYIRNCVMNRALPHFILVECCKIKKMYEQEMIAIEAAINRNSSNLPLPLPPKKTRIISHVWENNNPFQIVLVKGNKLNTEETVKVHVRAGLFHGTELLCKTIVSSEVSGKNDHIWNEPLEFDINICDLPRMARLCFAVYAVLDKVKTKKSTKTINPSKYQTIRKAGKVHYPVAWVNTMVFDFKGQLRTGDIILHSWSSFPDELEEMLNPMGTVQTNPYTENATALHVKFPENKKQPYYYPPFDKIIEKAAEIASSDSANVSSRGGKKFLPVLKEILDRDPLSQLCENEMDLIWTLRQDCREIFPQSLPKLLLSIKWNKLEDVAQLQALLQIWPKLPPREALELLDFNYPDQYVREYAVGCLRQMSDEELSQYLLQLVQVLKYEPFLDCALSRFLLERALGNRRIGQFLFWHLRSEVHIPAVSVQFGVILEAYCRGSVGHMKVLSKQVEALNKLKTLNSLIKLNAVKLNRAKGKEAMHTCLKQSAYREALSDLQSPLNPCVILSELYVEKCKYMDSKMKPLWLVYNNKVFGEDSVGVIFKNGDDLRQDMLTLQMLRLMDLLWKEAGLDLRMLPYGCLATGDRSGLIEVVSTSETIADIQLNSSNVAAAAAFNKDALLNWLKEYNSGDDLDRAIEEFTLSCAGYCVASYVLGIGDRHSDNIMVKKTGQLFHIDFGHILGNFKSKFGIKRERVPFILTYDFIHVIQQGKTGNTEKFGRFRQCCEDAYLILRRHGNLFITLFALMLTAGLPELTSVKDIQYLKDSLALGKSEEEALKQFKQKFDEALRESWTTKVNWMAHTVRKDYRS
Sequence (Q63787 whole entry partner): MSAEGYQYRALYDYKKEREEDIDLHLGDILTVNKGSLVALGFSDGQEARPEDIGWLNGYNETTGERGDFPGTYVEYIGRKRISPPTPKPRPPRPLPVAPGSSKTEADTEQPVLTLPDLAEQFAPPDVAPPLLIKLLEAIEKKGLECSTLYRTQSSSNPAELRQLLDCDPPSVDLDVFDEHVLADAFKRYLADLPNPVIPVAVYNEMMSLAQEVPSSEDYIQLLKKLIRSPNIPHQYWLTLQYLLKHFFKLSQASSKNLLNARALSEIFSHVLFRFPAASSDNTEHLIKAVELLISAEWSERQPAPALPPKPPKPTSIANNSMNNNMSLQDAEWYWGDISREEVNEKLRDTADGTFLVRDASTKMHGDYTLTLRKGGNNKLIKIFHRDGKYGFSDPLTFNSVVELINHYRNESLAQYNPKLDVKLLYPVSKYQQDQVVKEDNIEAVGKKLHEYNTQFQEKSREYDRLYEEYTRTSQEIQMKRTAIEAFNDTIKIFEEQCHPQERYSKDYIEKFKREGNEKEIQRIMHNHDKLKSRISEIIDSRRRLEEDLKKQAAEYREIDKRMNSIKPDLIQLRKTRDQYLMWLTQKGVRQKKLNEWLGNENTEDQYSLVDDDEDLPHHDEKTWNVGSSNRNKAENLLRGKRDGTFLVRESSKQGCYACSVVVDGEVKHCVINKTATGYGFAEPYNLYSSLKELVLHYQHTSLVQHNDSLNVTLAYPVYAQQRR
pIC50: −log10 of the molar value.
Reported pIC50 by item:

[
  {
    "COMPOUND": "CC1(CO)COC(=O)N1c1cc(-c2cnc(N)nc2C(F)(F)F)nc(N2CCOCC2)n1 (single isomer, unassigned) [Example 3B]",
    "pIC50": 6.48
  },
  {
    "COMPOUND": "C[C@H]1CN(c2cc(-c3cnc(N)nc3C(F)(F)F)nc(N3CCOCC3)n2)C(=O)O1 [Example 16]",
    "pIC50": 6.80
  },
  {
    "COMPOUND": "[2H]C1([2H])OC([2H])([2H])C([2H])([2H])N(c2nc(-c3cnc(N)nc3C(F)(F)F)cc(N3C(=O)O[C@H](C)[C@@H]3CO)n2)C1([2H])[2H] [Example 8]",
    "pIC50": 6.97
  },
  {
    "COMPOUND": "C[C@H]1C(CC(C)(C)O)OC(=O)N1c1cc(-c2cnc(N)nc2C(F)(F)F)nc(N2CCOCC2)n1 (mixture of isomers) [Example 26]",
    "pIC50": 7.12
  },
  {
    "COMPOUND": "C[C@H]1[C@H](CO)OC(=O)N1c1cc(-c2cnc(N)nc2C(F)(F)F)nc(N2CCOCC2)n1 [Example 15]",
    "pIC50": 6.94
  },
  {
    "COMPOUND": "Nc1ncc(-c2cc(N3C(=O)OC[C@@H]3CCO)nc(N3CCOCC3)n2)c(C(F)(F)F)n1 [Example 9]",
    "pIC50": 6.65
  },
  {
    "COMPOUND": "CC1(CO)COC(=O)N1c1cc(-c2cnc(N)nc2C(F)(F)F)nc(N2CCOCC2)n1 (racemic) [Example 3]",
    "pIC50": 6.71
  },
  {
    "COMPOUND": "Nc1ncc(-c2cc(N3C[C@H](CO)OC3=O)nc(N3CCOCC3)n2)c(C(F)(F)F)n1 [Example 20]",
    "pIC50": 6.91
  },
  {
    "COMPOUND": "C[C@H]1OC(=O)N(c2cc(-c3cnc(N)nc3C(F)(F)F)nc(N3CCOCC3)n2)[C@H]1CO [Example 18]",
    "pIC50": 7.06
  },
  {
    "COMPOUND": "C[C@@H]1OC(=O)N(c2cc(-c3cnc(N)nc3C(F)(F)F)nc(N3CCOCC3)n2)[C@H]1CO [Example 6]",
    "pIC50": 6.83
  },
  {
    "COMPOUND": "Nc1ncc(-c2cc(N3C(=O)O[C@H]4CCCC[C@@H]43)nc(N3CCOCC3)n2)c(C(F)(F)F)n1 [Example 4]",
    "pIC50": 6.74
  },
  {
    "COMPOUND": "CC1(CO)COC(=O)N1c1cc(-c2cnc(N)nc2C(F)(F)F)nc(N2CCOCC2)n1 (single isomer, unassigned) [Example 3A]",
    "pIC50": 7.03
  },
  {
    "COMPOUND": "CC1(C)OC(=O)N(c2cc(-c3cnc(N)nc3C(F)(F)F)nc(N3CCOCC3)n2)[C@H]1CO [Example 2]",
    "pIC50": 6.56
  },
  {
    "COMPOUND": "COC[C@H]1COC(=O)N1c1cc(-c2cnc(N)nc2C(F)(F)F)nc(N2CCOCC2)n1 [Example 5]",
    "pIC50": 6.50
  },
  {
    "COMPOUND": "C[C@H]1[C@@H](CO)OC(=O)N1c1cc(-c2cnc(N)nc2C(F)(F)F)nc(N2CCOCC2)n1 [Example 19]",
    "pIC50": 7.15
  },
  {
    "COMPOUND": "Nc1ncc(-c2cc(N3C(=O)OC[C@@H]3CO)nc(N3CCOCC3)n2)c(C(F)(F)F)n1 [Example 7]",
    "pIC50": 6.88
  },
  {
    "COMPOUND": "[2H]C1([2H])OC([2H])([2H])C([2H])([2H])N(c2nc(-c3cnc(N)nc3C(F)(F)F)cc(N3C(=O)OC[C@@H]3C)n2)C1([2H])[2H] [Example 17]",
    "pIC50": 6.77
  },
  {
    "COMPOUND": "C[C@H]1[C@@H](CCO)OC(=O)N1c1cc(-c2cnc(N)nc2C(F)(F)F)nc(N2CCOCC2)n1 [Example 23]",
    "pIC50": 7.57
  },
  {
    "COMPOUND": "Nc1ncc(-c2cc(N3CCOC3=O)nc(N3CCOCC3)n2)c(C(F)(F)F)n1 [Example 11, reference compound]",
    "pIC50": 6.74
  },
  {
    "COMPOUND": "Nc1ncc(-c2cc(N3C[C@@H](CO)OC3=O)nc(N3CCOCC3)n2)c(C(F)(F)F)n1 [Example 14]",
    "pIC50": 6.80
  },
  {
    "COMPOUND": "C[C@H]1OC(=O)N(c2cc(-c3cnc(N)nc3C(F)(F)F)nc(N3CCOC[C@@H]3C)n2)[C@H]1CO [Example 10]",
    "pIC50": 6.76
  },
  {
    "COMPOUND": "Nc1ncc(-c2cc(N3C(=O)O[C@H]4COC[C@H]43)nc(N3CCOCC3)n2)c(C(F)(F)F)n1 [Example 21]",
    "pIC50": 7.34
  },
  {
    "COMPOUND": "C[C@H]1COCCN1c1nc(-c2cnc(N)nc2C(F)(F)F)cc(N2C(=O)OC[C@@H]2C)n1 [Example 13]",
    "pIC50": 6.62
  },
  {
    "COMPOUND": "C[C@H]1COC(=O)N1c1cc(-c2cnc(N)nc2C(F)(F)F)nc(N2CCOCC2)n1 [Example 1]",
    "pIC50": 7.19
  },
  {
    "COMPOUND": "Nc1ncc(-c2cc(N3C(=O)O[C@@H]4[C@@H](O)CC[C@@H]43)nc(N3CCOCC3)n2)c(C(F)(F)F)n1 (racemic) [Example 22]",
    "pIC50": 7.11
  },
  {
    "COMPOUND": "Nc1ncc(-c2cc(N3C(=O)OC4C(O)CCC43)nc(N3CCOCC3)n2)c(C(F)(F)F)n1 (single isomer, unassigned) [Example 22B]",
    "pIC50": 6.90
  },
  {
    "COMPOUND": "C[C@H]1OC(=O)N(c2cc(-c3cnc(N)nc3C(F)(F)F)nc(N3CCOCC3)n2)[C@H]1COC=O [Example 12]",
    "pIC50": 6.91
  },
  {
    "COMPOUND": "Nc1ncc(-c2cc(N3C(=O)OC4C(O)CCC43)nc(N3CCOCC3)n2)c(C(F)(F)F)n1 (single isomer, unassigned) [Example 22A]",
    "pIC50": 7.22
  },
  {
    "COMPOUND": "C[C@H](O)CC1OC(=O)N(c2cc(-c3cnc(N)nc3C(F)(F)F)nc(N3CCOCC3)n2)[C@H]1C (single isomer, unassigned) [Example 25]",
    "pIC50": 7.37
  },
  {
    "COMPOUND": "C[C@@H](O)C[C@H]1OC(=O)N(c2cc(-c3cnc(N)nc3C(F)(F)F)nc(N3CCOCC3)n2)[C@H]1C (single isomer, unassigned) [Example 24]",
    "pIC50": 7.47
  }
]
